run.description: Time in which 1/2 of the initial amount disappeared in canine liver (44)
Assay type: ADME, […], Canis lupus familiaris
settings: dog
observable: half-life (min)
# value in min; strip the unit string

Enquiry: Looking for the measured half-life of CC(C)NCC(O)COC(=O)c1ccccc1Cl (stereo unspecified) , can you help?
Return: 12

====

run.description: T1/2 in canine blood
Format: ADME, […], Canis lupus familiaris
settings: dog
Listing of recorded half-life by entry.
Report as a plain number; the unit min is understood.

Take a look at these entries with their results.
compound	observable	experimental.result
CC(C)NCC(O)COC(=O)c1ccc(F)cc1 (configuration not stated)	half-life	4
CC(C)(C)NCC(O)COC(=O)c1cccc([N+](=O)[O-])c1 (configuration not stated)	half-life	74
CC(C)(C)NCC(O)COC(=O)c1cccc(O)c1 (configuration not stated)	half-life	119

Enquiry: Which measured half-life value corresponds to Cc1ccc(C(=O)OCC(O)CNC(C)C)cc1 (configuration not stated) ?
Return: 67

Enquiry: Would you mind telling me what half-life value was observed for CC(C)(C)NCC(O)COC(=O)c1ccccc1Cl (configuration not stated) ?
Return: 31
